# test system: Adenosine receptor A2a (Homo sapiens)
# experiment: Displacement of [3H]ZM241385 from human recombinant adenosine A2A receptor expressed in CHO cell membranes by scintillation counting
measurement name: Ki (nM)
One number for each entry, in nM.

Summary line: `Cn1cc2c(n1)c(N)nc1c(OCc3ccccc3)cccc12` , Adenosine receptor A2a (Homo sapiens), reported Ki = 750

---

# test system: Adenosine receptor A2b (Homo sapiens) (UniProt P29275)
# Sequence (whole entry): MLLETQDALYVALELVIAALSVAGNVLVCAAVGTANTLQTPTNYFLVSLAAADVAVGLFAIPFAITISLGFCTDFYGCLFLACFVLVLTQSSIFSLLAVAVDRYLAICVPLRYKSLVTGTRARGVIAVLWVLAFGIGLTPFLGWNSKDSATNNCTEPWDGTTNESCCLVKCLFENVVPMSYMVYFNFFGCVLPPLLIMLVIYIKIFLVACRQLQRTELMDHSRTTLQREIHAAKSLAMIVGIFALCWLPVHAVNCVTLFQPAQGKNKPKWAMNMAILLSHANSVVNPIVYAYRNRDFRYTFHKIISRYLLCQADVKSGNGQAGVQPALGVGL
# experiment: Antagonist activity at human recombinant adenosine A2B receptor expressed in CHO cells assessed as inhibition of NECA-induced cAMP levels at 1 uM
# Assay type: functional, cell-based
measurement name: inhibition (%)
Answers are plain numbers, in %.

Illustrative cases are given below, each with its answer.
O=c1[nH]c2c(OCc3ccccc3)cccc2c2cn(-c3ccccc3)nc12 = 2
O=c1[nH]c2c(O)cccc2c2cn(-c3ccccc3)nc12 = 4
Nc1nc2c(Br)cccc2c2cn(-c3ccccc3)nc12 = 2

Recorded inhibition for `Nc1nc2c(OCc3ccccc3)cccc2c2cn(-c3ccccc3)nc12` on Adenosine receptor A2b (Homo sapiens) (UniProt P29275) was 5

---

# test system: Adenosine receptor A2a (Homo sapiens, UniProt P29274)
# Sequence (P29274 whole entry): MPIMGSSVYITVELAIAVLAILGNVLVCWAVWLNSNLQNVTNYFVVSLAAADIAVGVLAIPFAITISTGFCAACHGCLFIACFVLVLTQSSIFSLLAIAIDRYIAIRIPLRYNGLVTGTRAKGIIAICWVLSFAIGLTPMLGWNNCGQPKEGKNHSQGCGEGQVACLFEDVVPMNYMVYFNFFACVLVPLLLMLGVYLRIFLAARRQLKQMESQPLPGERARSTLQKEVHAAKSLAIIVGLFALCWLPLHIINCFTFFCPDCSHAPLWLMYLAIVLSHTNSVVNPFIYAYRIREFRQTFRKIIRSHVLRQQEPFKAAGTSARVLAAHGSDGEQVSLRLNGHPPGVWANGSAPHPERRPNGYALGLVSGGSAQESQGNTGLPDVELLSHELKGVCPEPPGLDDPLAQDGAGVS
# experiment: Displacement of [3H]ZM241385 from human recombinant adenosine A2A receptor expressed in CHO cell membranes at 1 uM by scintillation counting
measurement name: inhibition (%)
Answers are plain numbers, in %.

These solved cases illustrate the format of a correct answer.
Nc1nc2c(NCc3ccccc3)cccc2c2cn(-c3ccccc3)nc12 = 1
Nc1nc2c(Br)cccc2c2cn(-c3ccccc3)nc12 = 35
Nc1cccc2c1[nH]c(=O)c1nn(-c3ccccc3)cc12 = 1
O=c1[nH]c2c(OCc3ccccc3)cccc2c2cn(-c3ccccc3)nc12 = 1
Nc1nc2c(O)cccc2c2cn(-c3ccccc3)nc12 = 19

Dear colleague, could you please provide inhibition for the compounds listed below?
1. Cn1cc2c(n1)c(=O)[nH]c1ccccc12
2. Nc1nc2c(OCCc3ccccc3)cccc2c2cn(-c3ccccc3)nc12
3. O=c1[nH]c2c(O)cccc2c2cn(-c3ccccc3)nc12
4. Cn1cc2c(n1)c(=O)[nH]c1c(OCc3ccccc3)cccc12
5. O=c1[nH]c2c(Br)cccc2c2cn(-c3ccccc3)nc12

1: 1; 2: 11; 3: 5; 4: 1; 5: 17

---

# test system: Adenosine receptor A3 (Homo sapiens) (UniProt P0DMS8)
# Sequence (P0DMS8 whole entry): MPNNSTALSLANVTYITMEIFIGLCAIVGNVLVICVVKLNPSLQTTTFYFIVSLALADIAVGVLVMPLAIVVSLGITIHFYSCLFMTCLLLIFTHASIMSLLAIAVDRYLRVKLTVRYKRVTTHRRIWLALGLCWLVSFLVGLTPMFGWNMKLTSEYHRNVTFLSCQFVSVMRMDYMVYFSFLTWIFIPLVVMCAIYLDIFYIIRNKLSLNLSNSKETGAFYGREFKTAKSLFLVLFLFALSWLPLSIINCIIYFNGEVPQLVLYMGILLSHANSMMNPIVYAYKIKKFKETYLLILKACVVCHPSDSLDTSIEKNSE
# experiment: Displacement of [125I]I-AB-MECA from human recombinant adenosine A3 receptor expressed in CHO cells at 1 uM by scintillation counting
# Type: cell-based
measurement name: inhibition (%)
Answers are plain numbers, in %.

Example results:
O=c1[nH]c2c(O)cccc2c2cn(-c3ccccc3)nc12 = 16
Nc1nc2c(OCc3ccccc3)cccc2c2cn(-c3ccccc3)nc12 = 20
Nc1nc2c(Br)cccc2c2cn(-c3ccccc3)nc12 = 29

Provide inhibition for all items below, preserving their order.
1. O=c1[nH]c2c(Br)cccc2c2cn(-c3ccccc3)nc12
2. Nc1nc2c(NCc3ccccc3)cccc2c2cn(-c3ccccc3)nc12
3. Cn1cc2c(n1)c(=O)[nH]c1ccccc12
4. Nc1nc2c(OCCc3ccccc3)cccc2c2cn(-c3ccccc3)nc12
5. O=C(Nc1cccc2c1[nH]c(=O)c1nn(-c3ccccc3)cc12)OCc1ccccc1
6. Nc1nc2c(O)cccc2c2cn(-c3ccccc3)nc12
7. Cn1cc2c(n1)c(N)nc1ccccc12

1. 16
2. 1
3. 12
4. 28
5. 14
6. 20
7. 18

Would you mind giving inhibition for every compound in the list below?
1. O=c1[nH]c2c(OCc3ccccc3)cccc2c2cn(-c3ccccc3)nc12
2. O=c1[nH]c2c(OC(c3ccccc3)c3ccccc3)cccc2c2cn(-c3ccccc3)nc12
3. Nc1cccc2c1[nH]c(=O)c1nn(-c3ccccc3)cc12

1. 33
2. 6
3. 18

// data source = ChEMBL document CHEMBL1795254
